These measurements were taken from PubChem BioAssay (NCI).

Assay: NCI Yeast Anticancer Drug Screen. Data for the mec2-1 strain (AID 157)
Settings: S. cerevisiae mec2-1 strain, at 50.0 µM (retest, dose inferred, filed as 5.0)
This is part of a sample that, as a whole, favours compounds with a hit. Of some 79,000 tested, about 15% had one in any assay. The source made the active and inactive calls. Rule as the data show it: active = growth inhibition above about 70%; inactive = the rest.
Labels: TRUE (active), FALSE (inactive)

[
  {
    "compound": "C#C[C@]1(OC(C)=O)CC[C@H]2[C@@H]3CCC4=CC(=O)CC[C@@H]4[C@H]3CC[C@@]21C",
    "group": "FALSE"
  },
  {
    "compound": "O=c1oc2ccccc2c(O)c1/C=N/C(=S)NCCc1ccccc1",
    "group": "TRUE"
  },
  {
    "compound": "c1ccc2c(c1)CCN2CCc1c[nH]c2ccccc12",
    "group": "FALSE"
  },
  {
    "compound": "COc1ccccc1C1c2cc3c(cc2OC2(OC)COC(=O)C12)OCO3 (centres undefined)",
    "group": "FALSE"
  },
  {
    "compound": "S=C(N/N=C(/c1ccccc1)c1ccccn1)N1CCCCC1",
    "group": "TRUE"
  },
  {
    "compound": "Oc1c(Cl)cc(Cl)cc1C=Nc1cc(C(F)(F)F)ccc1Cl",
    "group": "TRUE"
  },
  {
    "compound": "CC/C(C)=C1\\CCC(CN2CCOCC2)C1=O (centres undefined)",
    "group": "TRUE"
  },
  {
    "compound": "CCCCCCCCCCCCOc1c(Cl)cc(Cl)c(Cl)c1Cc1c(O)c(Cl)cc(Cl)c1Cl",
    "group": "TRUE"
  },
  {
    "compound": "CC1=CC(=N/O)/C=CC/1=C(\\C#N)c1ccccc1",
    "group": "TRUE"
  }
]

###

Measured growth inhibition, listed per entry for reference.
Experiment: NCI Yeast Anticancer Drug Screen. Data for the rad50 strain (AID 155);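 also: 0% = growth of vehicle-only cultures of the same strain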
Conditions: S. cerevisiae rad50 strain growth inhibition; at 50.0 µM (retest, dose inferred, filed as 5.0); active compounds read high
This is part of a sample that, as a whole, favours compounds with a hit. Of some 79,000 tested, about 15% had one in any assay.

[
  {
    "molecule": "Cc1cc(C)nc(CCSS(=O)(=O)O)c1",
    "unit.annotation": "%",
    "growth inhibition": 5
  },
  {
    "molecule": "O=C(c1ccc([N+](=O)[O-])cc1)C(Br)C(Br)c1ccnc2ccccc12 (stereo unspecified)",
    "unit.annotation": "%",
    "growth inhibition": 80
  },
  {
    "molecule": "N#CSc1ccc(O)cc1",
    "unit.annotation": "%",
    "growth inhibition": 95
  },
  {
    "molecule": "Cc1cc(Cl)ccc1C(=O)c1ccc2ccccc2c1C(=O)O",
    "unit.annotation": "%",
    "growth inhibition": 44
  },
  {
    "molecule": "Cc1ccc(S(=O)(=O)CC(=O)CC(=O)C(=O)Nc2cc(C)ccc2C)cc1",
    "unit.annotation": "%",
    "growth inhibition": 4
  },
  {
    "molecule": "O=NN(CCCl)C(=O)Nc1cc(Cl)ccc1O",
    "unit.annotation": "%",
    "growth inhibition": 57
  }
]

###

Assay: NCI Yeast Anticancer Drug Screen. Data for the mec2-1 strain (AID 157)
Conditions: S. cerevisiae mec2-1 strain, at 50.0 µM, active compounds read high
The panel holds about 79,000 compounds, 15% with a hit somewhere; the sample as a whole holds those more often.
measured.property: growth inhibition (%)

[
  {
    "molecule": "C[C@]12CC[C@H](O)C[C@@H]1CC[C@@H]1[C@@H]2CC[C@]2(C)C=CC[C@@H]12",
    "measured.property": "growth inhibition",
    "meas.value": 33.4
  },
  {
    "molecule": "Cc1cc(C)nc(CCSS(=O)(=O)O)c1",
    "measured.property": "growth inhibition",
    "meas.value": -0.95
  },
  {
    "molecule": "CN(C)C(=S)N1C(=S)N(c2ccccc2)C(=Nc2ccccc2)C1=Nc1ccccc1",
    "measured.property": "growth inhibition",
    "meas.value": -23.6
  },
  {
    "molecule": "COc1ccc2c3c(c4cc(OC)c(OC)cc4c2c1)CN1CCC[C@H]1[C@@H]3O",
    "measured.property": "growth inhibition",
    "meas.value": 90.6
  },
  {
    "molecule": "Oc1c(N2CCOCC2)cc(-c2cc(N3CCOCC3)c(O)c3ccccc23)c2ccccc12",
    "measured.property": "growth inhibition",
    "meas.value": 86.3
  },
  {
    "molecule": "Cc1ccc(C)c([N+](=O)[O-])c1",
    "measured.property": "growth inhibition",
    "meas.value": 17.6
  },
  {
    "molecule": "CCN1CCC(O)(/C=C/c2ccc(Cl)c(Cl)c2)C(C(=O)/C=C/c2ccc(Cl)c(Cl)c2)C1 (stereo unspecified)",
    "measured.property": "growth inhibition",
    "meas.value": 99.4
  },
  {
    "molecule": "OC1CCCCC1Cc1ccc(Cl)cc1 (stereo unspecified)",
    "measured.property": "growth inhibition",
    "meas.value": 93.8
  },
  {
    "molecule": "COc1ccc(/C=C/C(=N/NC(=O)c2ccccc2)C(C)CN(C)C)cc1 (stereo unspecified)",
    "measured.property": "growth inhibition",
    "meas.value": 16.3
  },
  {
    "molecule": "CC(C)C(Sc1nc(-c2ccccc2)c(-c2ccccc2)[nH]1)C(=O)NN (stereo unspecified)",
    "measured.property": "growth inhibition",
    "meas.value": 33.4
  },
  {
    "molecule": "COC(=O)c1c2c(cc3c1CC1(Cc4cc5c(c(C)c4C1)CCC5)C3)CCC2 (stereo unspecified)",
    "measured.property": "growth inhibition",
    "meas.value": -46.4
  },
  {
    "molecule": "CCCCCCCCCCCCCCCCNC(C)c1ccccc1 (stereo unspecified)",
    "measured.property": "growth inhibition",
    "meas.value": 98.7
  },
  {
    "molecule": "CC(=O)n1c(=S)n(C(C)=O)c2ccccc21",
    "measured.property": "growth inhibition",
    "meas.value": 54.4
  },
  {
    "molecule": "CCCCCCCCCCCC(=O)N(CCCCCCCCC)CC(O)C(O)C(OC1OC(CO)C(O)C(O)C1O)C(O)CO (stereo unspecified)",
    "measured.property": "growth inhibition",
    "meas.value": 85
  },
  {
    "molecule": "O=S(=O)(CC(Br)c1ccccc1)CC(Br)c1ccccc1 (stereo unspecified)",
    "measured.property": "growth inhibition",
    "meas.value": 43
  },
  {
    "molecule": "Cc1ccccc1CN(C)CCO",
    "measured.property": "growth inhibition",
    "meas.value": 17.3
  },
  {
    "molecule": "COc1cc(N=Nc2ccccc2)cc(/C=N/NC(N)=S)c1O",
    "measured.property": "growth inhibition",
    "meas.value": 67.2
  },
  {
    "molecule": "O=C(O)c1nc2cc(C(F)(F)F)ccc2nc1Nc1ccc(Cl)c(Cl)c1",
    "measured.property": "growth inhibition",
    "meas.value": 80.3
  },
  {
    "molecule": "Clc1ccc(CN2COc3c(ccc4ccccc34)C2)cc1",
    "measured.property": "growth inhibition",
    "meas.value": 59.8
  },
  {
    "molecule": "CCC(=O)C(C(=O)CC)c1c(OC(=O)c2ccccc2)ccc(O)c1C(=O)OC",
    "measured.property": "growth inhibition",
    "meas.value": 47.9
  },
  {
    "molecule": "COc1ccc(C2=C(Cl)C(=O)N(c3ccccc3Cl)C(=O)C2(Cl)Cl)cc1",
    "measured.property": "growth inhibition",
    "meas.value": 98.7
  },
  {
    "molecule": "O=C(O)C(O)C(O)C(OC1OC(CO)C(O)C(O)C1O)C(O)CO.[Br][Pt].[NH-]C1CCCCC1[NH-] (stereo unspecified)",
    "measured.property": "growth inhibition",
    "meas.value": 62.9
  },
  {
    "molecule": "Cc1ccc(C2(O)CC(c3ccc([N+](=O)[O-])o3)=NN2C(=O)COc2ccc(Cl)cc2)cc1 (stereo unspecified)",
    "measured.property": "growth inhibition",
    "meas.value": 51.9
  },
  {
    "molecule": "COC1CC2CCC(C)[C@](O)(O2)C(=O)C(=O)N2CCCCC2C(=O)OC(C(C)CC2CCC(O)C(OC)C2)CC(=O)C(C)C=C(C)C(OC(=O)CCCN2CCCC2)C(OC)C(=O)C(C)CC(C)/C=C/C=C/C=C\\1C (stereo partly specified)",
    "measured.property": "growth inhibition",
    "meas.value": 92.3
  },
  {
    "molecule": "COC(=O)C(=O)C(C(=O)c1ccc(F)cc1)c1nc2n(c1O)C(=N)N=N2 (stereo unspecified)",
    "measured.property": "growth inhibition",
    "meas.value": 77.6
  },
  {
    "molecule": "COc1cc2c(cc1O)CCCCC2",
    "measured.property": "growth inhibition",
    "meas.value": -29.2
  },
  {
    "molecule": "CCCCCCCCCCCCCCCBr",
    "measured.property": "growth inhibition",
    "meas.value": 49.6
  },
  {
    "molecule": "COc1cc(OC)c(C2CC(C)(OC)Oc3cc4c(cc32)OCO4)c(OC)c1 (stereo unspecified)",
    "measured.property": "growth inhibition",
    "meas.value": 17.1
  },
  {
    "molecule": "CCc1ccc(CC(=O)O)c2ccc3c(C)ccc(C)c3c12",
    "measured.property": "growth inhibition",
    "meas.value": 95.8
  },
  {
    "molecule": "N=C(N)c1ccc(OCCCCOc2ccc(N)cc2Cl)cc1",
    "measured.property": "growth inhibition",
    "meas.value": 7.85
  },
  {
    "molecule": "O=C1/C(=C\\c2ccccc2)C(NC2CCCCC2)c2ccccc21 (stereo unspecified)",
    "measured.property": "growth inhibition",
    "meas.value": 99.7
  },
  {
    "molecule": "CC1=CC(=O)CC(c2ccccc2)C1 (stereo unspecified)",
    "measured.property": "growth inhibition",
    "meas.value": 98.3
  },
  {
    "molecule": "[Cu+2].[NH-]c1ccccc1O.[NH-]c1ccccc1[OH2+]",
    "measured.property": "growth inhibition",
    "meas.value": 46.6
  },
  {
    "molecule": "CCCC1c2ccc(O)cc2CC1c1ccc(O)cc1 (stereo unspecified)",
    "measured.property": "growth inhibition",
    "meas.value": 99.4
  },
  {
    "molecule": "O=C(O)CNc1ccc2c(c1)Cc1cc(Br)ccc1-2",
    "measured.property": "growth inhibition",
    "meas.value": 96.2
  },
  {
    "molecule": "O=C(O)C(Cc1ccccc1)N=Cc1ccc(O)cc1 (stereo unspecified)",
    "measured.property": "growth inhibition",
    "meas.value": 11.8
  }
]
